Where do the numbers come from? From patent US20120301469A1.

experimental.target: protein F of hRSV strain B-1 (on RSV B-1-infected Hep2 cells and on virus) (human respiratory syncytial virus, …, UniProt P13843 26-574)
test.details: cell ELISA on RSV B-1-infected Hep2 cells, periplasmic extract 1:200
Listed binders paired with reported Binding Hep2-B-1 (% control) 1:200 PE
assay.metric: Binding Hep2-B-1 (% control) 1:200 PE

[[record]]
binder = "Nanobody 13D1 (VHH, also called PMP13D1; PRSV13D1) VHH: EVQLVESGGGLVQPGGSLRLSCATSGFTEDYYVIGWFRQAPGKEREGVSCMSSSGDSTTYADSVKGRFTISRDNAKNMVYLQMTSLKPEDTAVYYCAADFALGCYSGSYYPRYDYWGQGTQVTVSS"
result = "75 % control"

[[record]]
binder = "Nanobody 23E5 (VHH, also called PMP23E5; PRSV23E5) VHH: EVQLMESGGGLVQAGGSLRLSCAASGGTFSSYAMGWFRQAPGEERDFVAAIGWSGNSPYYAQFVKGRFTISRDNAKNTVHLQMNSLKPEDTAVYYCAAAHNTMGSDYEGYDYWGQGTQVTVSS"
result = "82 % control"

